Would you mind telling me the reported growth of each entry?
# Tested on: HT29 colon
# Method Notes: NCI-60 one-dose screen, 48 h (100 = growth as untreated, 0 = no growth, -100 = all killed)
# Particulars: 10 µM
Compounds without any hit were thinned out: in the full panel of roughly 83,000, 20% have a hit.
Give bare numbers, in %.

O=C([Se]C1C=CCCC1)c1ccc(C(=O)[Se]C2C=CCCC2)s1 (configuration not stated); -25.6
O=C(/C=C/c1ccc(Cl)cc1)c1nc2ccccc2n1Cc1ccc(Br)cc1; 38.1
CC[C@@]12CC(C(=O)OC)=C3Nc4cc5c(cc4[C@@]34CCN(C[C@H]3O[C@H]31)[C@@H]24)[C@@H]1[C@H](O5)[C@@H](O)[C@@]2(CC)CC(C(=O)OC)=C3Nc4cc(OC)ccc4[C@@]34CCN1[C@@H]24; 10.7
C[C@H]1[C@H](OC(=O)CCC(=O)Nc2cnccn2)O[C@@H]2OC3(C)CC[C@H]4[C@H](C)CC[C@@H]1[C@@]24OO3; 27.3
CC1=C2C(=C[C@@](C)(COP(=O)(Oc3ccccc3)Oc3ccccc3)[C@@H]2O)C(=O)[C@@](C)(O)C12CC2; -57.3

Can you give me growth for all of these, one by one?
1. C[C@H]1[C@@H](Oc2ccc(-c3cn(-c4ccnc5cc(Cl)ccc45)nn3)cc2)O[C@@H]2OC3(C)CC[C@H]4[C@H](C)CC[C@@H]1[C@@]24OO3
2. COc1ccc2cc([C@H](C)C(=O)[Se]CCC#N)ccc2c1

1: 22.3; 2: -49.3
